Below, each entry is listed with its recorded MIC Staphylococcus aureus (GC 3053).
# Tested on: Staphylococcus sp.
# Measurement protocol: in vitro antibacterial evaluation, MIC by broth dilution
# Type: cell-based
# Protocol conditions: broth dilution, 18 hours at 35° C.; strain GC 3053
Recorded metric: MIC Staphylococcus aureus (GC 3053) (µg/mL)

>  <Molecule>
CC(C)=CCCC(C)C1OCC2OC(OC3C(CO)OC(Oc4ccc(CC5NC(=O)C(C(C)c6ccccc6)NC(=O)CNC(=O)C(CO)NC(=O)C(C(O)C6CNC(=N)N6C6OC(CO)C(O)C(O)C6O)NC(=O)C(C(O)C6CNC(=N)N6)NC5=O)cc4)C(O)C3O)C(O)C(O)C2O1 (centres unmarked)

>  <Recorded metric>
MIC Staphylococcus aureus (GC 3053)

>  <Unit text>
µg/mL

>  <Reported measurement>
32

$$$$
>  <Molecule>
CC(c1ccccc1)C1NC(=O)CNC(=O)C(CO)NC(=O)C(C(O)C2CNC(=N)N2C2OC(CO)C(O)C(O)C2O)NC(=O)C(C(O)C2CNC(=N)N2)NC(=O)C(Cc2ccc(OC3OC(CO)C(OC4OC5COC(c6ccc(-c7ccsc7)cc6)OC5C(O)C4O)C(O)C3O)cc2)NC1=O (centres unmarked)

>  <Recorded metric>
MIC Staphylococcus aureus (GC 3053)

>  <Unit text>
µg/mL

>  <Reported measurement>
8

$$$$

====

# System: Staphylococcus sp.
# Measurement protocol: in vitro antibacterial evaluation, MIC by broth dilution
# Format: cell-based
# Protocol conditions: broth dilution, 18 hours at 35° C.
Below, each entry is listed with its recorded MIC Staphylococcus aureus (GC 4545).

>  <Compound>
CCOc1cc(COCC2OC(OC3C(CO)OC(Oc4ccc(CC5NC(=O)C(C(C)c6ccccc6)NC(=O)CNC(=O)C(CO)NC(=O)C(C(O)C6CNC(=N)N6C6OC(CO)C(O)C(O)C6O)NC(=O)C(C(O)C6CNC(=N)N6)NC5=O)cc4)C(O)C3O)C(O)C(O)C2O)ccc1OC (centres unmarked)

>  <Unit text>
µg/mL

>  <Inequality operator>
=

>  <MIC Staphylococcus aureus (GC 4545)>
2

$$$$
>  <Compound>
COc1ccc2cc(COC3C(OC4C(CO)OC(Oc5ccc(CC6NC(=O)C(C(C)c7ccccc7)NC(=O)CNC(=O)C(CO)NC(=O)C(C(O)C7CNC(=N)N7C7OC(CO)C(O)C(O)C7O)NC(=O)C(C(O)C7CNC(=N)N7)NC6=O)cc5)C(O)C4O)OC(CO)C(O)C3O)ccc2c1 (centres unmarked) [Example 230c]

>  <Unit text>
µg/mL

>  <Inequality operator>
=

>  <MIC Staphylococcus aureus (GC 4545)>
128

$$$$
>  <Compound>
CC(c1ccccc1)C1NC(=O)CNC(=O)C(CO)NC(=O)C(C(O)C2CNC(=N)N2C2OC(CO)C(O)C3OC(C)(C)OC32)NC(=O)C(C(O)C2CNC(=N)N2)NC(=O)C(Cc2ccc(OC3OC(CO)C(OC4OC5COC(C)(C)OC5C5OC(C)(C)OC45)C4OC(C)(C)OC34)cc2)NC1=O (centres unmarked) [Example 229b]

>  <Unit text>
µg/mL

>  <Inequality operator>
>

>  <MIC Staphylococcus aureus (GC 4545)>
128

$$$$
>  <Compound>
CCCCCCCC1OCC2OC(OC3C(CO)OC(Oc4ccc(CC5NC(=O)C(C(C)c6ccccc6)NC(=O)CNC(=O)C(CO)NC(=O)C(C(O)C6CNC(=N)N6C6OC(CO)C(O)C(O)C6O)NC(=O)C(C(O)C6CNC(=N)N6)NC5=O)cc4)C(O)C3O)C(O)C(O)C2O1 (centres unmarked)

>  <Unit text>
µg/mL

>  <Inequality operator>
=

>  <MIC Staphylococcus aureus (GC 4545)>
1

$$$$
>  <Compound>
CC(c1ccccc1)C1NC(=O)CNC(=O)C(CO)NC(=O)C(CC2CNC(=N)N2C2OC(CO)C(O)C(O)C2O)NC(=O)C(CC2CNC(=N)N2)NC(=O)C(Cc2ccc(OC3OC(CO)C(OC4OC(CO)C(OCc5ccc(OCc6ccccc6)cc5)C(O)C4O)C(O)C3O)cc2)NC1=O (centres unmarked) [Example 246a]

>  <Unit text>
µg/mL

>  <Inequality operator>
=

>  <MIC Staphylococcus aureus (GC 4545)>
2

$$$$
>  <Compound>
CC(c1ccccc1)C1NC(=O)CNC(=O)C(CO)NC(=O)C(C(O)C2CNC(=N)N2C2OC(CO)C(O)C(O)C2O)NC(=O)C(C(O)C2CNC(=N)N2)NC(=O)C(Cc2ccc(OC3OC(CO)C(OC4OC5COC(Cc6ccc(Cl)cc6)OC5C(O)C4O)C(O)C3O)cc2)NC1=O (centres unmarked)

>  <Unit text>
µg/mL

>  <Inequality operator>
<

>  <MIC Staphylococcus aureus (GC 4545)>
0.5

$$$$
>  <Compound>
COc1ccc(COCC2OC(OC3C(CO)OC(Oc4ccc(CC5NC(=O)C(C(C)c6ccccc6)NC(=O)CNC(=O)C(CO)NC(=O)C(C(O)C6CNC(=N)N6C6OC(CO)C(O)C(O)C6O)NC(=O)C(C(O)C6CNC(=N)N6)NC5=O)cc4)C(O)C3O)C(O)C(O)C2O)c2ccccc12 (centres unmarked)

>  <Unit text>
µg/mL

>  <Inequality operator>
=

>  <MIC Staphylococcus aureus (GC 4545)>
4

$$$$
>  <Compound>
CCC(C)C(=O)OC1C(CO)OC(OC2C(CO)OC(Oc3ccc(CC4NC(=O)C(C(C)c5ccccc5)NC(=O)CNC(=O)C(CO)NC(=O)C(C(O)C5CNC(=N)N5C5OC(CO)C(O)C(O)C5O)NC(=O)C(C(O)C5CNC(=N)N5)NC4=O)cc3)C(O)C2O)C(O)C1O (centres unmarked) [Example 278c]

>  <Unit text>
µg/mL

>  <Inequality operator>
=

>  <MIC Staphylococcus aureus (GC 4545)>
4

$$$$
>  <Compound>
COc1ccc(COCC2OC(OC3C(CO)OC(Oc4ccc(CC5NC(=O)C(C(C)c6ccccc6)NC(=O)CNC(=O)C(CO)NC(=O)C(C(O)C6CNC(=N)N6C6OC(CO)C(O)C(O)C6O)NC(=O)C(C(O)C6CNC(=N)N6)NC5=O)cc4)C(O)C3O)C(O)C(O)C2O)cc1OCc1ccccc1 (centres unmarked)

>  <Unit text>
µg/mL

>  <Inequality operator>
=

>  <MIC Staphylococcus aureus (GC 4545)>
2

$$$$
>  <Compound>
CC(c1ccccc1)C1NC(=O)CNC(=O)C(CO)NC(=O)C(C(O)C2CNC(=N)N2C2OC(CO)C(O)C(O)C2O)NC(=O)C(C(O)C2CNC(=N)N2)NC(=O)C(Cc2ccc(OC3OC(CO)C(OC4OC5COC(c6ccsc6)OC5C(O)C4O)C(O)C3O)cc2)NC1=O (centres unmarked)

>  <Unit text>
µg/mL

>  <Inequality operator>
=

>  <MIC Staphylococcus aureus (GC 4545)>
1

$$$$
>  <Compound>
CC(c1ccccc1)C1NC(=O)CNC(=O)C(CO)NC(=O)C(C(O)C2CNC(=N)N2C2OC(CO)C(O)C(O)C2O)NC(=O)C(C(O)C2CNC(=N)N2)NC(=O)C(Cc2ccc(OC3OC(CO)C(OC4OC5COC(C6CCCC6)OC5C(O)C4O)C(O)C3O)cc2)NC1=O (centres unmarked)

>  <Unit text>
µg/mL

>  <Inequality operator>
=

>  <MIC Staphylococcus aureus (GC 4545)>
1

$$$$

====

# Tested on: Staphylococcus sp.
# Measurement protocol: in vitro antibacterial evaluation, MIC by broth dilution
# Type: cell-based
# Protocol conditions: broth dilution, 18 hours at 35° C.
Recorded metric: MIC Staphylococcus aureus (GC 4541) (µg/mL)

>  <Compound>
COc1ccc(CC2OCC3OC(OC4C(CO)OC(Oc5ccc(CC6NC(=O)C(C(C)c7ccccc7)NC(=O)CNC(=O)C(CO)NC(=O)C(C(O)C7CNC(=N)N7C7OC(CO)C(O)C(O)C7O)NC(=O)C(C(O)C7CNC(=N)N7)NC6=O)cc5)C(O)C4O)C(O)C(O)C3O2)cc1 (stereo not shown)

>  <Reported measurement>
2

$$$$
>  <Compound>
CC(c1ccccc1)C1NC(=O)CNC(=O)C(CO)NC(=O)C(C(O)C2CNC(=N)N2C2OC(CO)C(O)C(O)C2O)NC(=O)C(C(O)C2CNC(=N)N2)NC(=O)C(Cc2ccc(OC3OC(CO)C(OC4OC(CO)C(OCC=Cc5ccc(N(C)C)cc5)C(O)C4O)C(O)C3O)cc2)NC1=O (stereo not shown) [Example 243a]

>  <Reported measurement>
32

$$$$
>  <Compound>
CCCC(C)C1OCC2OC(OC3C(CO)OC(Oc4ccc(CC5NC(=O)C(C(C)c6ccccc6)NC(=O)CNC(=O)C(CO)NC(=O)C(C(O)C6CNC(=N)N6C6OC(CO)C(O)C(O)C6O)NC(=O)C(C(O)C6CNC(=N)N6)NC5=O)cc4)C(O)C3O)C(O)C(O)C2O1 (stereo not shown)

>  <Reported measurement>
1

$$$$

====

# Tested on: Enterococcus sp.
# Measurement protocol: in vitro antibacterial evaluation, MIC by broth dilution
# Assay type: cell-based
# Protocol conditions: strain GC 6189; broth dilution, 18 hours at 35° C.
# Source text: Methods for in vitro Antibacterial Evaluation (Table 1) […]
Below, each entry is listed with its recorded MIC Enterococcus faecalis (GC 6189).
Recorded metric: MIC Enterococcus faecalis (GC 6189)

>  <Compound>
CC(c1ccccc1)C1NC(=O)CNC(=O)C(CO)NC(=O)C(C(O)C2CNC(=N)N2C2OC(CO)C(O)C(O)C2O)NC(=O)C(C(O)C2CNC(=N)N2)NC(=O)C(Cc2ccc(OC3OC(CO)C(OC4OC5COC(c6ccc(C=Cc7ccccc7)cc6)OC5C(O)C4O)C(O)C3O)cc2)NC1=O (centres unmarked) [Example 172]

>  <Reported measurement>
2 µg/mL

$$$$
>  <Compound>
CC(c1ccccc1)C1NC(=O)CNC(=O)C(CO)NC(=O)C(C(O)C2CNC(=N)N2C2OC(CO)C(O)C(O)C2O)NC(=O)C(C(O)C2CNC(=N)N2)NC(=O)C(Cc2ccc3oc(=O)[nH]c3c2)NC1=O (centres unmarked) [Example 22]

>  <Reported measurement>
>128 µg/mL

$$$$
>  <Compound>
CC(c1ccccc1)C1NC(=O)CNC(=O)C(CO)NC(=O)C(C(O)C2CNC(=N)N2C2OC(CO)C(O)C(O)C2O)NC(=O)C(C(O)C2CNC(=N)N2)NC(=O)C(Cc2ccc(OC3OC(CO)C(OC4OC5COC(c6ccc7c(c6)OCCO7)OC5C(O)C4O)C(O)C3O)cc2)NC1=O (centres unmarked) [Example 149]

>  <Reported measurement>
8 µg/mL

$$$$
>  <Compound>
CC(c1ccccc1)C1NC(=O)CNC(=O)C(CO)NC(=O)C(C(O)C2CNC(=N)N2C2OC(CO)C(O)C(O)C2O)NC(=O)C(C(O)C2CNC(=N)N2)NC(=O)C(Cc2ccc3oc(-c4ccc(C(=O)O)cc4)nc3c2)NC1=O (centres unmarked) [Example 25]

>  <Reported measurement>
>128 µg/mL

$$$$
>  <Compound>
CC(c1ccccc1)C1NC(=O)CNC(=O)C(CO)NC(=O)C(C(O)C2CNC(=N)N2C2OC(CO)C(O)C(O)C2O)NC(=O)C(C(O)C2CNC(=N)N2)NC(=O)C(Cc2ccc3oc(-c4ccoc4)nc3c2)NC1=O (centres unmarked) [Example 38]

>  <Reported measurement>
128 µg/mL

$$$$
>  <Compound>
CC(c1ccccc1)C1NC(=O)CNC(=O)C(CO)NC(=O)C(C(O)C2CNC(=N)N2C2OC(CO)C(O)C(O)C2O)NC(=O)C(C(O)C2CNC(=N)N2)NC(=O)C(Cc2ccc(OC3OC(CO)C(OC4OC5COC(c6ccc(C(=O)O)cc6)OC5C(O)C4O)C(O)C3O)cc2)NC1=O (centres unmarked) [Example 141]

>  <Reported measurement>
>64 µg/mL

$$$$
>  <Compound>
CC(C)C(=O)Nc1cc(CC2NC(=O)C(C(C)c3ccccc3)NC(=O)CNC(=O)C(CO)NC(=O)C(C(O)C3CNC(=N)N3C3OC(CO)C(O)C(O)C3O)NC(=O)C(C(O)C3CNC(=N)N3)NC2=O)ccc1O (centres unmarked) [Example 15]

>  <Reported measurement>
>128 µg/mL

$$$$
>  <Compound>
CC(c1ccccc1)C1NC(=O)CNC(=O)C(CO)NC(=O)C(C(O)C2CNC(=N)N2C2OC(CO)C(O)C(O)C2O)NC(=O)C(C(O)C2CNC(=N)N2)NC(=O)C(Cc2ccc(OC3OC(CO)C(OC4OC5COC(c6cccc(OCc7ccc([N+](=O)[O-])cc7)c6)OC5C(O)C4O)C(O)C3O)cc2)NC1=O (centres unmarked) [Example 182]

>  <Reported measurement>
>64 µg/mL

$$$$
